Species: Rattus norvegicus
method_notes: Displacement of [131I]IMTO from CYP450c 11 in Wistar rat adrenal membrane
Assay type: cell membranes

{"columns": ["compound", "logIC50"],
 "data": [
  ["CNC(=O)c1cncn1[C@H](C)c1ccccc1", 2.33],
  ["CC(=O)c1cncn1[C@H](C)c1ccccc1", 1.78],
  ["CCOC(=O)c1cncn1[C@H](C)c1ccccc1 [ETOMIDATE]", 0.033],
  ["CON(C)C(=O)c1cncn1[C@H](C)c1ccccc1", 1.18],
  ["COC(=O)c1cncn1[C@@H](C)c1ccccc1", 2.69],
  ["COC(=O)c1cncn1[C@H](C)c1ccc(I)cc1 [IODOMETOMIDATE I-123, R-]", 0.954],
  ["C[C@H](c1ccccc1)n1cncc1C(=O)OCCF", 0.46],
  ["COC(=O)c1cncn1[C@H](C)c1ccccc1", 0.57],
  ["COC(=O)c1cncn1Cc1ccccc1", 1.46],
  ["COC(=O)c1cncn1[C@H](C)c1cccnc1", 1.32]
]}

---

method_notes: Displacement of [131I]IMTO from CYP450c 11 in Wistar rat adrenal membrane
Type: cell membranes
pIC50: −log10 of the molar value.
TRUE means recorded pIC50 is 8 or above; FALSE means it is below 8.

{"columns": ["molecule", "category_label"],
 "data": [
  ["CCOC(=O)c1cncn1[C@H](C)c1ccccc1 [ETOMIDATE]", "TRUE"],
  ["COC(=O)c1cncn1[C@H](C)c1ccc(C)cc1", "TRUE"],
  ["COC(=O)c1cncn1[C@@H]1CCc2ccccc21", "TRUE"],
  ["CC(C)OC(=O)c1cncn1[C@H](C)c1ccccc1", "TRUE"],
  ["CNC(=O)c1cncn1[C@H](C)c1ccccc1", "FALSE"],
  ["COC(=O)c1cncn1Cc1ccccc1", "FALSE"],
  ["C[C@H](c1ccccc1)n1cncc1C(=O)OCCF", "TRUE"],
  ["C[C@H](c1ccccc1)n1cncc1C(=O)O", "FALSE"],
  ["COC(=O)c1cncn1[C@H](C)c1cccc(I)c1", "TRUE"]
]}

---

method_notes: Displacement of [131I]IMTO from CYP450c 11 in Wistar rat adrenal membrane
Format: cell membranes

{"columns": ["compound_structure", "unit_symbol", "IC50"],
 "data": [
  ["COC(=O)c1cncn1[C@@H](C)c1ccccc1", "nM", 492],
  ["CCOC(=O)c1cncn1[C@H](C)c1ccc(I)cc1", "nM", 4.37],
  ["CC(=O)c1cncn1[C@H](C)c1ccccc1", "nM", 59.8],
  ["COC(=O)c1cncn1[C@H](C)c1ccc(CO)cc1", "nM", 3.29],
  ["CCCOC(=O)c1cncn1[C@H](C)c1ccccc1", "nM", 2.89],
  ["COC(=O)c1cncn1[C@H](C)c1ccccc1", "nM", 3.69],
  ["COC(=O)c1cncn1[C@H](C)c1cccnc1", "nM", 20.7],
  ["COC(=O)c1cncn1Cc1cccnc1", "nM", 870]
]}

---

# IC50 per record follows
method_notes: Displacement of [131I]IMTO from CYP450c 11 in Wistar rat adrenal membrane
Assay type: cell membranes

{"columns": ["compound", "unit_symbol", "IC50"],
 "data": [
  ["CC[C@H](c1ccccc1)n1cncc1C(=O)OC", "nM", 6.23],
  ["CON(C)C(=O)c1cncn1[C@H](C)c1ccccc1", "nM", 14],
  ["COC(=O)c1cncn1[C@H](C)c1ccc(Br)cc1", "nM", 8.95],
  ["COC(=O)c1cncn1[C@H](C)c1ccc(I)cc1 [IODOMETOMIDATE I-123, R-]", "nM", 8.98]
]}
